- Test system: A549
- EXPERIMENT: Antiproliferative activity against human A549 cells at 10 uM after 72 hrs by MTS assay
- Assay type: functional
Kindly state Activity for each of the entries shown.
Please reply with the bare figure in % and do not write the unit itself.

Name the value of Activity reported for "O=C1Nc2ccccc2/C1=C/c1ccc(N2CCN(C(=O)CCCl)CC2)cc1" when tested on A549.
54.9

Find Activity for "C=CC(=O)N1CCN(c2ccc(/C=C3\C(=O)Nc4ncccc43)cc2)CC1" on A549 and write it down.
25.1

Supply Activity measured with A549 for "O=C1Nc2ccccc2/C1=C/c1ccc(N2CCN(C(=O)c3ccccc3)CC2)cc1" .
23.47

Lab note: A549 assay, enter Activity for "O=C1Nc2ncccc2/C1=C/c1ccc(N2CCN(C(=O)c3ccccc3)CC2)cc1" here
10.59

GET Activity where system = A549 and item = "O=C1Nc2ccc(Cl)cc2/C1=N/c1ccc2cc[nH]c2c1"
10.2

Please indicate recorded Activity of "O=C1Nc2ccccc2/C1=C/c1ccc(N2CCOCC2)cc1" measured with A549.
37.09

Identify measured Activity obtained with A549 for "O=C1Nc2ccc(Cl)cc2/C1=N/c1ccc2[nH]ccc2c1" .
-10.32

Enter measured Activity, system A549, for the molecule shown: "O=C1Nc2ccc(Cl)cc2/C1=N/NC(=O)c1ccco1"
11.52

Under A549, report Activity for "O=C1Nc2ccc(Cl)cc2/C1=C/c1c[nH]c2ncccc12"
34.13

Recall the reported Activity of "O=CN1CCN(c2ccc(/C=C3\C(=O)Nc4ncccc43)cc2)CC1" when tested on A549.
0.14

Jot down Activity (A549) of "O=C1Nc2ncccc2/C1=C/c1ccc(N2CCN(C(=O)CCCl)CC2)cc1" .
5.2

---

- EXPERIMENT: Antiproliferative activity against human PM8910 cells after 72 hrs by MTS assay
- Format: functional, cell-based
- CONDITIONS: PM8910, 72 h
READOUT TYPE: IC50 (µM)
Note: unit µM is implicit; provide only the numeric part.

Specify reported IC50 for the compound shown: "O=C1Nc2ccccc2/C1=C/c1ccc(N2CCN(C(=O)CCCl)CC2)cc1"
2.76

Read off the recorded IC50 for "C=CC(=O)N1CCN(c2ccc(/C=C3\C(=O)Nc4ccccc43)cc2)CC1"
6.74

---

- EXPERIMENT: Antiproliferative activity against human SKBR3 cells at 10 uM after 72 hrs by MTS assay
- Format: functional, SK-BR-3
Note to self: Activity under 10% means MET, ties and anything higher get NOT MET.

Lab log: compare recorded Activity with 10%; is it strictly lower for "O=C1Nc2ncccc2/C1=C/c1c[nH]c2ccccc12" ?
MET

# TODO verify Activity < 10% strictly for this compound: "O=C1Nc2ccc(Cl)cc2/C1=N/NC(=O)c1ccco1"
NOT MET

A record lists "O=C1Nc2ncccc2/C1=C/c1ccc(N2CCN(C(=O)CCCl)CC2)cc1" . Is its Activity below 10%?
NOT MET

Would you kindly verify if Activity of "O=C1Nc2ccccc2/C1=C/c1ccc(N2CCOCC2)cc1" is strictly less than 10%?
NOT MET

Threshold test, Activity < 10%: "CCOC(=O)c1ccc(/N=C2\C(=O)Nc3ccc(Cl)cc32)c(N2CCOCC2)n1"
NOT MET

Regarding "Cn1cc(/C=C2/C(=O)Nc3ncccc32)c2ccccc21" , kindly confirm whether its Activity is beneath 10%.
MET

Dear reviewer, please state whether "O=C1Nc2ccc(Cl)cc2/C1=N/NC(=O)c1ccc(N2CCOCC2)c([N+](=O)[O-])c1" has Activity strictly beneath 10%.
NOT MET

Input "O=C1Nc2ncccc2/C1=C/c1ccc(N2CCOCC2)cc1" ; condition: Activity strictly below 10%. Does it hold?
MET

hey, is Activity for "O=C1Nc2ccc(Cl)cc2/C1=N/c1ccc2cc[nH]c2c1" lower than 10% or not?
NOT MET

Quick check: does "O=C1Nc2ccccc2/C1=C/c1ccc(N2CCN(C(=O)CCCl)CC2)cc1" have Activity under 10%?
NOT MET

Identify whether the compound "CCn1c2ccccc2c2cc(/N=C3/C(=O)Nc4ccc(Cl)cc43)ccc21" records Activity below 10%.
NOT MET

---

- EXPERIMENT: Antiproliferative activity against human PM8910 cells at 10 uM after 72 hrs by MTS assay
- Type: functional
READOUT TYPE: Activity (%)
Hi! Could you send only the number? It should be in %, unit omitted.

Consider the compound "O=C1Nc2ccc(Cl)cc2/C1=N/c1ccc2[nH]ccc2c1" and give its recorded Activity.
10.94

Annotate the compound "O=C1Nc2ccccc2/C1=C/c1ccc(N2CCOCC2)cc1" with its measured Activity.
14.19

Consider the compound "O=CN1CCN(c2ccc(/C=C3\C(=O)Nc4ccccc43)cc2)CC1" . State its measured Activity.
27.47

Provide only the value of recorded Activity for "Cc1cc2cc(/N=C3\C(=O)Nc4ccc(Cl)cc43)ccc2[nH]1"
12.97
